# Test Description: Partition of cannabinoids between degummed cannabis oil miscella and water/ethanol/base extraction solvent in a fiber conduit contactor
# Type: physicochemical
# Parameters: scale not given here
# Reported Conditions: Base KHCO3; H2O/EtOH/Base (wt %) 73.1/24.3/2.6
Reported Partition coefficient values for the following molecules.
Measured Attribute: Partition coefficient

In [3]: df
Out[3]:
                                   molecule  measurement
0  C=C(C)[C@@H]1CCC(C)=C[C@H]1c1c(O)cc(CCCCC)cc1O [CBD, cannabidiol, reference compound]         1.06
1  CCCCCc1cc2c(c(O)c1C(=O)O)C=CC(C)(CCC=C(C)C)O2 (centres unmarked) [CBCA, cannabichromenic acid]         2.59
2  C=C(C)[C@@H]1CCC(C)=C[C@H]1c1c(O)cc(CCCCC)c(C(=O)O)c1O [CBDA, cannabidiolic acid]        −0.59
3  CCCCCc1cc(O)c(C/C=C(\C)CCC=C(C)C)c(O)c1C(=O)O [CBGA, cannabigerolic acid]         0.72
4  CCCCCc1cc2c(c(O)c1C(=O)O)[C@@H]1C=C(C)CC[C@H]1C(C)(C)O2 [THCA, tetrahydrocannabinolic acid]         1.76

###

Reported Partition coefficient values for the following compounds.
# Test Description: Partition of cannabinoids between degummed cannabis oil miscella and water/ethanol/base extraction solvent in a fiber conduit contactor
# Format: physicochemical
# Design: scale not given here
# Reported Conditions: Base K2CO3; H2O/EtOH/Base (wt %) 82.8/14.7/2.5
Measured Attribute: Partition coefficient

>>> print(df.to_string())
                                   compound  measurement
0  C=C(C)[C@@H]1CCC(C)=C[C@H]1c1c(O)cc(CCCCC)cc1O [CBD, cannabidiol, reference compound]         0.19
1  CCCCCc1cc(O)c(C/C=C(\C)CCC=C(C)C)c(O)c1C(=O)O        −0.15
2  CCCCCc1cc(O)c2c(c1)OC(C)(C)[C@@H]1CCC(C)=C[C@@H]21 [THC, tetrahydrocannabinol, reference compound]         0.09
3  CCCCCc1cc2c(c(O)c1C(=O)O)C=CC(C)(CCC=C(C)C)O2 (stereo not shown)        −0.25

###

Reported Partition coefficient values for the following compounds.
# Test Description: Partition of cannabinoids between degummed cannabis oil miscella and water/ethanol/base extraction solvent in a fiber conduit contactor
# Type: physicochemical
# Parameters: scale not given here
# Reported Conditions: Base Na2CO3; H2O/EtOH/Base (wt %) 68.4/29.1/2.5
Measured Attribute: Partition coefficient

In [3]: df
Out[3]:
                                   compound  measurement
0  CCCCCc1cc(O)c2c(c1)OC(C)(CCC=C(C)C)C=C2 (stereo not shown) [CBC, cannabichromene]         −0.2
1  C=C(C)[C@@H]1CCC(C)=C[C@H]1c1c(O)cc(CCCCC)c(C(=O)O)c1O [CBDA, cannabidiolic acid]        −2.37
2  CCCCCc1cc2c(c(O)c1C(=O)O)[C@@H]1C=C(C)CC[C@H]1C(C)(C)O2 [THCA, tetrahydrocannabinolic acid]        −0.18
3  CCCCCc1cc(O)c(C/C=C(\C)CCC=C(C)C)c(O)c1C(=O)O [CBGA, cannabigerolic acid]        −0.57
